Target: aminopeptidase A (AP-A) (Homo sapiens, UniProt Q07075)
Construct: an AP-A solution which was obtained by ammonium sulfate fractionation according to the method of Nagatsu et al; from tissue
Sequence (Q07075 whole entry): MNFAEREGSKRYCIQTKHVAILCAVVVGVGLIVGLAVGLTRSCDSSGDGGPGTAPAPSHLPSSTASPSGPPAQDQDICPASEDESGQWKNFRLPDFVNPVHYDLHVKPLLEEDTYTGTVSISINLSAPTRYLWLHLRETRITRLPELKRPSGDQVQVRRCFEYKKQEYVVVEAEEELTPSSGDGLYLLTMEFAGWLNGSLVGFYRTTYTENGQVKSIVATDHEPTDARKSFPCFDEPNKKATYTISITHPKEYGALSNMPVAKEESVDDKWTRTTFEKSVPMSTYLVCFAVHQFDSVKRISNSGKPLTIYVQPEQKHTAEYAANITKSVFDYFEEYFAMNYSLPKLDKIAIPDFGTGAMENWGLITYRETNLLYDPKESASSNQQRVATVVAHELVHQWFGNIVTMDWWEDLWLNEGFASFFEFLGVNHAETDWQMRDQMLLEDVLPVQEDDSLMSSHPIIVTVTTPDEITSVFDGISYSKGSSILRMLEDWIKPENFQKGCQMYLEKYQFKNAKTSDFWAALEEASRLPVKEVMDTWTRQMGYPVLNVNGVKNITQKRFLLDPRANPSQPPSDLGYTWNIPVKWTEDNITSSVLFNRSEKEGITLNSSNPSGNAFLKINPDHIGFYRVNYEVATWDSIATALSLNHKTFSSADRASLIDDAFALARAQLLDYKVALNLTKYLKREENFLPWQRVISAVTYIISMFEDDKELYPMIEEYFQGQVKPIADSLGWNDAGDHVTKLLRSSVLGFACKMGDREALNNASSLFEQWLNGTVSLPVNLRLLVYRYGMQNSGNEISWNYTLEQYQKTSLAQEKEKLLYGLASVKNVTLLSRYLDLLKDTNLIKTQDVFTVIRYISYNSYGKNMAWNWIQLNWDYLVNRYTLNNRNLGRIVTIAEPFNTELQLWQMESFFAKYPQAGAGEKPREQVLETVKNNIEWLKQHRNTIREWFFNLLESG
Assay: AP-A (E.C. 3,4,11,7) inhibition assay
Type: biochemical
Details: L-α-glutamyl-β-naphthylamide substrate, pH 7.0, 37° C., 30 minutes; read-out: IC/50 AP--A: amount of the peptide to inhibit the intact activity of the target enzyme by 50% (converted)
The following compounds are shown together with reported IC50 values.
Could you give me the number in µM? Just the number is fine.

Use these answered entries as a reference point.
{"compound": "CC(C)C[C@H](NC(=O)[C@@H](O)[C@H](N)CC(C)C)C(=O)N[C@H](C(=O)N[C@@H](CC(=O)O)C(=O)O)C(C)C [X--Leu--Val--Asp, (2S,3R)-AHMHA-Leu-Val-Asp]", "IC50 (µM)": 10.2}
{"compound": "CC(C)C[C@@H](N)[C@H](O)C(=O)N[C@H](C(=O)N[C@H](C(=O)N[C@@H](CC(=O)O)C(=O)O)C(C)C)[C@@H](C)O [X--Thr--Val--Asp, (2S,3R)-AHMHA-Thr-Val-Asp]", "IC50 (µM)": 0.315}

Next, consider the following compound.
Q. Give IC50 only, for CC(C)C[C@@H](N)[C@H](O)C(=O)N[C@H](C(=O)N[C@H](C(=O)N[C@@H](CCC(=O)O)C(=O)O)C(C)C)C(C)C [X--Val--Val--Glu, reference compound] , using aminopeptidase A (AP-A) (Homo sapiens, UniProt Q07075) data.
A. 4.09

---

Target: aminopeptidase A (AP-A) (Homo sapiens, UniProt Q07075)
Construct: an AP-A solution which was obtained by ammonium sulfate fractionation according to the method of Nagatsu et al; from tissue
Test: AP-A (E.C. 3,4,11,7) inhibition assay
Assay type: biochemical
Settings: L-α-glutamyl-β-naphthylamide substrate, pH 7.0, 37° C., 30 minutes; read-out: IC/50 AP--A: amount of the peptide to inhibit the intact activity of the target enzyme by 50% (converted)
Label Satisfied when IC50 is strictly below 20 µM; otherwise label Not satisfied.

Take a look at these entries with their results.
{"molecule": "CC(C)C[C@@H](N)[C@H](O)C(=O)N[C@@H](CCCCN)C(=O)N[C@H](C(=O)N[C@@H](CC(=O)O)C(=O)O)C(C)C [X--Lys--Val--Asp, (2S,3R)-AHMHA-Lys-Val-Asp]", "qualitative_label": "Satisfied"}
{"molecule": "CC(C)C[C@@H](N)[C@H](O)C(=O)N[C@H](C(=O)N[C@H](C(=O)N[C@@H](CCCCN)C(=O)O)C(C)C)C(C)C [X--Val--Val--Lys, (2S,3R)-AHMHA-Val-Val-Lys]", "qualitative_label": "Not satisfied"}
{"molecule": "CC(C)C[C@@H](N)[C@H](O)C(=O)N[C@H](C(=O)N[C@@H](CCC(=O)O)C(=O)N[C@@H](CC(=O)O)C(=O)O)C(C)C [X--Val--Glu--Asp, (2S,3R)-AHMHA-Val-Glu-Asp]", "qualitative_label": "Satisfied"}
{"molecule": "CC(C)C[C@@H](N)[C@H](O)C(=O)N1CCC[C@H]1C(=O)O [X--Pro]", "qualitative_label": "Not satisfied"}

Consider the record given below.
Q. Input CC(C)C[C@@H](N)[C@H](O)C(=O)N[C@H](C(=O)N[C@H](C(=O)N[C@H](C(=O)O)C(C)C)C(C)C)C(C)C [X--Val--Val--Val, (2S,3R)-AHMHA-Val-Val-Val] ; condition: IC50 strictly below 20 µM. Does it hold?
A. Satisfied

---

Biological target: leucine aminopeptidase (Leu-AP) (Sus scrofa)
Construct: purchased Boehringer-Mannheim Co
Assay: Leu-AP (E.C. 3,4,11,1) inhibition assay
Assay type: biochemical
Conditions: Leu-AP (Boehringer-Mannheim), leucyl-β-naphthylamide substrate, pH 7.6, 37° C., 30 minutes; read-out: IC/50 Leu--AP: amount of the peptide to inhibit the intact activity of the target enzyme by 50% (converted)
quantity: IC50 (µM)
Could you give me the number in µM? Just the number is fine.

{"molecule": "CC(C)C[C@@H](N)[C@H](O)C(=O)N[C@H](C(=O)N[C@H](C(=O)N[C@@H](Cc1ccccc1)C(=O)O)[C@@H](C)O)C(C)C", "measurement_unit": "µM", "IC50": 0.727}

Q. State, in one line, measured IC50 of CC(C)C[C@@H](N)[C@H](O)C(=O)N[C@@H](CC(=O)O)C(=O)O
A. 105

---

The following compounds are shown together with reported log10 IC50 values.
Molecular target: leucine aminopeptidase (Leu-AP) (Sus scrofa, UniProt P28839)
Construct: purchased Boehringer-Mannheim Co
Sequence (P28839 whole entry): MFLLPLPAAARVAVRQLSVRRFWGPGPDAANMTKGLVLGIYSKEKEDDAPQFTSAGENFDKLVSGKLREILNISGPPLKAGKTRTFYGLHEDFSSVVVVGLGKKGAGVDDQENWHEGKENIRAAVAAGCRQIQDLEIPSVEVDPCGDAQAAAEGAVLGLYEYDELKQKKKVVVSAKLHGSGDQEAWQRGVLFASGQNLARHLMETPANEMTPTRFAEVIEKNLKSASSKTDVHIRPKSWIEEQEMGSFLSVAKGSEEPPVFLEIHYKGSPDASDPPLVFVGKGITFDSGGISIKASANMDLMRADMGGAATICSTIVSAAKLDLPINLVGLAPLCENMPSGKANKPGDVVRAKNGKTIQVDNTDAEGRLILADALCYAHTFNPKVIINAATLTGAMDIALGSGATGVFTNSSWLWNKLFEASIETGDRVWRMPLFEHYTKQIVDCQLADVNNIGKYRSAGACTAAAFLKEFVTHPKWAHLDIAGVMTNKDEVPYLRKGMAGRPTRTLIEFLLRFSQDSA
Assay: Leu-AP (E.C. 3,4,11,1) inhibition assay
Assay type: biochemical
Details: Leu-AP (Boehringer-Mannheim), leucyl-β-naphthylamide substrate, pH 7.6, 37° C., 30 minutes; read-out: IC/50 Leu--AP: amount of the peptide to inhibit the intact activity of the target enzyme by 50% (converted)
Where a SMILES comes first, the peptide text is derived from it. The star is where a group is joined. X1 = CC(C)C[C@@H](N)[C@H](O)C(=O)*
Recorded IC50 (log10, µM)

Use these answered entries as a reference point.
{"compound": "CC(C)C[C@@H](N)[C@H](O)C(=O)N[C@H](C(=O)N[C@H](C(=O)N[C@@H](CCCNC(=N)N)C(=O)O)C(C)C)C(C)C [X--Val--Val-- Arg, (2S,3R)-AHMHA-Val-Val-Arg]", "target_of_assay": "leucine aminopeptidase (Leu-AP) (Sus scrofa, UniProt P28839)", "log10 IC50": 1.59}
{"compound": "CC(C)C[C@@H](N)[C@H](O)C(=O)N[C@H](C(=O)N[C@H](C(=O)N[C@@H](CC(=O)O)C(=O)O)C(C)C)[C@@H](C)O [X--Thr--Val--Asp, (2S,3R)-AHMHA-Thr-Val-Asp]", "target_of_assay": "leucine aminopeptidase (Leu-AP) (Sus scrofa, UniProt P28839)", "log10 IC50": 0.72}
{"compound": "CC(C)C[C@H](NC(=O)[C@@H](O)[C@H](N)CC(C)C)C(=O)N[C@H](C(=O)N[C@@H](CC(=O)O)C(=O)O)C(C)C [X--Leu--Val--Asp, (2S,3R)-AHMHA-Leu-Val-Asp]", "target_of_assay": "leucine aminopeptidase (Leu-AP) (Sus scrofa, UniProt P28839)", "log10 IC50": -0.21}
{"compound": "CC(C)C[C@@H](N)[C@H](O)C(=O)N[C@@H](CCCCN)C(=O)N[C@H](C(=O)N[C@@H](CC(=O)O)C(=O)O)C(C)C [X--Lys--Val--Asp, (2S,3R)-AHMHA-Lys-Val-Asp]", "target_of_assay": "leucine aminopeptidase (Leu-AP) (Sus scrofa, UniProt P28839)", "log10 IC50": 2.34}
{"compound": "CC(C)C[C@@H](N)[C@H](O)C(=O)N[C@H](C(=O)N[C@H](C(=O)N[C@@H](Cc1ccccc1)C(=O)O)C(C)C)C(C)C [X--Val--Val--Phe, (2S,3R)-AHMHA-Val-Val-Phe]", "target_of_assay": "leucine aminopeptidase (Leu-AP) (Sus scrofa, UniProt P28839)", "log10 IC50": 0.64}

Q. Give log10 IC50 only, for CC(C)C[C@H](NC(=O)[C@@H](NC(=O)[C@@H](O)[C@H](N)CC(C)C)C(C)C)C(=O)N[C@@H](CC(=O)O)C(=O)O [X--Val--Leu--Asp, (2S,3R)-AHMHA-Val-Leu-Asp] , using leucine aminopeptidase (Leu-AP) (Sus scrofa, UniProt P28839) data.
A. 0.16

Q. Give log10 IC50 only, for CC(C)C[C@@H](N)[C@H](O)C(=O)N[C@H](C(=O)N[C@H](C(=O)N[C@@H](CCCCN)C(=O)O)C(C)C)C(C)C [X--Val--Val--Lys, (2S,3R)-AHMHA-Val-Val-Lys] , using leucine aminopeptidase (Leu-AP) (Sus scrofa, UniProt P28839) data.
A. 1.82

Q. Give log10 IC50 only, for CC(C)C[C@@H](N)[C@H](O)C(=O)N[C@H](C(=O)N[C@@H](CCCCN)C(=O)N[C@@H](CC(=O)O)C(=O)O)C(C)C [X--Val--Lys--Asp, (2S,3R)-AHMHA-Val-Lys-Asp] , using leucine aminopeptidase (Leu-AP) (Sus scrofa, UniProt P28839) data.
A. 0.84

Q. Give log10 IC50 only, for CC(C)C[C@@H](N)[C@H](O)C(=O)N[C@H](C(=O)N[C@H](C(=O)N1CCC[C@H]1C(=O)O)C(C)C)C(C)C [X--Val--Val--Pro, (2S,3R)-AHMHA-Val-Val-Pro] , using leucine aminopeptidase (Leu-AP) (Sus scrofa, UniProt P28839) data.
A. 0.77

Q. Give log10 IC50 only, for CC(C)C[C@@H](N)[C@H](O)C(=O)N[C@H](C(=O)N[C@H](C(=O)O)C(C)C)C(C)C [X--Val--Val] , using leucine aminopeptidase (Leu-AP) (Sus scrofa, UniProt P28839) data.
A. 0.40

Q. Give log10 IC50 only, for CC(C)C[C@@H](N)[C@H](O)C(=O)N[C@H](C(=O)N[C@H](C(=O)N[C@@H](CC(=O)O)C(=O)O)[C@@H](C)O)C(C)C [X--Val--Thr--Asp, (2S,3R)-AHMHA-Val-Thr-Asp] , using leucine aminopeptidase (Leu-AP) (Sus scrofa, UniProt P28839) data.
A. 0.32

Q. Give log10 IC50 only, for CC(C)C[C@@H](N)[C@H](O)C(=O)N[C@H](C(=O)N[C@H](C(=O)N[C@H](C(=O)N[C@@H](CC(=O)O)C(=O)O)C(C)C)C(C)C)C(C)C [X--Val--Val--Val--Asp] (X1-VVVD-OH) , using leucine aminopeptidase (Leu-AP) (Sus scrofa, UniProt P28839) data.
A. 0.86

Q. Give log10 IC50 only, for CC(C)C[C@@H](N)[C@H](O)C(=O)N[C@@H](CCCCN)C(=O)N[C@H](C(=O)N[C@H](C(=O)O)C(C)C)C(C)C [X--Lys--Val--Val, (2S,3R)-AHMHA-Lys-Val-Val] , using leucine aminopeptidase (Leu-AP) (Sus scrofa, UniProt P28839) data.
A. 2.57

Q. Give log10 IC50 only, for CC(C)C[C@@H](N)[C@H](O)C(=O)N1CCC[C@H]1C(=O)O [X--Pro] , using leucine aminopeptidase (Leu-AP) (Sus scrofa, UniProt P28839) data.
A. 1.92

Q. Give log10 IC50 only, for CC(C)C[C@@H](N)[C@H](O)C(=O)N[C@H](C(=O)N[C@H](C(=O)N[C@H](C(=O)O)[C@@H](C)O)C(C)C)C(C)C [X--Val--Val--Thr, (2S,3R)-AHMHA-Val-Val-Thr] , using leucine aminopeptidase (Leu-AP) (Sus scrofa, UniProt P28839) data.
A. 0.88

Q. Give log10 IC50 only, for CC(C)C[C@@H](N)[C@H](O)C(=O)N[C@H](C(=O)O)C(C)C [X--Val] , using leucine aminopeptidase (Leu-AP) (Sus scrofa, UniProt P28839) data.
A. 0.28

Q. Give log10 IC50 only, for CC(C)C[C@@H](N)[C@H](O)C(=O)N[C@@H](CCC(=O)O)C(=O)N[C@H](C(=O)N[C@@H](CC(=O)O)C(=O)O)C(C)C [X--Glu--Val--Asp, (2S,3R)-AHMHA-Glu-Val-Asp] , using leucine aminopeptidase (Leu-AP) (Sus scrofa, UniProt P28839) data.
A. 1.90

Q. Give log10 IC50 only, for CC(C)C[C@@H](N)[C@H](O)C(=O)N[C@H](C(=O)N[C@H](C(=O)N[C@@H](CCC(=O)O)C(=O)O)C(C)C)C(C)C [X--Val--Val--Glu, reference compound] , using leucine aminopeptidase (Leu-AP) (Sus scrofa, UniProt P28839) data.
A. 0.65
